Target: human recombinant HDAC6 (Homo sapiens, UniProt Q9UBN7)
Sequence (Q9UBN7 1-1215): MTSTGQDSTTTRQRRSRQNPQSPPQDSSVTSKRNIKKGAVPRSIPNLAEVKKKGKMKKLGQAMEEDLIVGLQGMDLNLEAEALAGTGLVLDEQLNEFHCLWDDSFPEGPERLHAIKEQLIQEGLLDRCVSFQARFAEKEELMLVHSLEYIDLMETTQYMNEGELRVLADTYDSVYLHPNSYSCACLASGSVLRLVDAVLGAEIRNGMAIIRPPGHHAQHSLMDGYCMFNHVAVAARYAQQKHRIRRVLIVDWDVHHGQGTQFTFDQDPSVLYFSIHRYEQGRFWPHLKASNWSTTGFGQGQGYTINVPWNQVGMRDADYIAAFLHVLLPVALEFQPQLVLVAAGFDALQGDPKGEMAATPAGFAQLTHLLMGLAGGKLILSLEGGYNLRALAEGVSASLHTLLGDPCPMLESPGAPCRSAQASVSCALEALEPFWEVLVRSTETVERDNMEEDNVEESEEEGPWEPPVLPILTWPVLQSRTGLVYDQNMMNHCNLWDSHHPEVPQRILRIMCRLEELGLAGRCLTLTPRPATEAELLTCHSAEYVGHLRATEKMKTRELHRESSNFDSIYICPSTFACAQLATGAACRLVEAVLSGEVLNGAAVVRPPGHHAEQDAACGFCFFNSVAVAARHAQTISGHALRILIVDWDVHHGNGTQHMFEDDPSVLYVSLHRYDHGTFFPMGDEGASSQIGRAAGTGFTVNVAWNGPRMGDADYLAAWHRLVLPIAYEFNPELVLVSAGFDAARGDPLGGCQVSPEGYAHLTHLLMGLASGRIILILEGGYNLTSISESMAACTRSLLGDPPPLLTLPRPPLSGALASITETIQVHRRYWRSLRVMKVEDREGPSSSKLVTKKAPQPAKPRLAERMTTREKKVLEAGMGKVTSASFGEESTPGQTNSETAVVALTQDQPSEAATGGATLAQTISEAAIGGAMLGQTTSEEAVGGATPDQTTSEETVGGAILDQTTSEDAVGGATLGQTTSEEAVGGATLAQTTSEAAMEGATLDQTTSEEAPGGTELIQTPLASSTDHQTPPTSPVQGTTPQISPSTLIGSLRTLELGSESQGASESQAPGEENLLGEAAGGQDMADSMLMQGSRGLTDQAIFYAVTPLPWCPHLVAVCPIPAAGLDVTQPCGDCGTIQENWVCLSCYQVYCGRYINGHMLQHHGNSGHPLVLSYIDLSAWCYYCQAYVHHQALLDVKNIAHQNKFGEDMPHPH
Assay: HDAC6 enzyme activity inhibition assay (HDAC Fluorimetric Drug Discovery Kit)
Settings: 30° C. 60 minutes
measured parameter: IC50 (nM)

I: FC(F)c1nnc(-c2cnc(NC3(c4ccccc4)CCC3)nc2)o1
II: FC(F)(F)c1nnc(-c2cnc(NC3(c4ccc(Cl)cc4Cl)CCC3)nc2)o1
III: FC(F)(F)c1nnc(-c2cnc(NC3(c4ccccc4)CCCCC3)nc2)o1
IV: FC(F)(F)c1nnc(-c2cnc(NC3(c4ccccc4Cl)CCC3)nc2)o1
Query :: Put the items above in order of decreasing IC50. The response must list the labels following the requested ordering.
Result :: II, III, IV, I
(II: 2520 nM, III: 1250 nM, IV: 211 nM, I: 30 nM)

====

Molecular target: human recombinant HDAC1 (Homo sapiens)
Construct: purchased Enzo Life Science BML-SE456
Sequence (Q13547 whole entry): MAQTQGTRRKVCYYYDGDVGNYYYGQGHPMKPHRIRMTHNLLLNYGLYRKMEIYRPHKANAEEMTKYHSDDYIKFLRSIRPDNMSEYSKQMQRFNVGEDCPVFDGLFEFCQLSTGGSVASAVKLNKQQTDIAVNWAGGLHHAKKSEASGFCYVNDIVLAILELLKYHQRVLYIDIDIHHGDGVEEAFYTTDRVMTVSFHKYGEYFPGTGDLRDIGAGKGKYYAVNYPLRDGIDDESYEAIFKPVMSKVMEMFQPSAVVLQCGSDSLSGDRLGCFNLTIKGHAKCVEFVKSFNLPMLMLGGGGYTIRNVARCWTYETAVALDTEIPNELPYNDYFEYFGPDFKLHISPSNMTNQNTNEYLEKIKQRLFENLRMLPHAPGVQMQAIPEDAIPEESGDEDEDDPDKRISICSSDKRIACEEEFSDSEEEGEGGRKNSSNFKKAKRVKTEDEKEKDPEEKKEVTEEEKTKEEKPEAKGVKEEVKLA
Assay: HDAC1 enzyme activity inhibition assay (HDAC Fluorimetric Drug Discovery Kit)
Assay type: biochemical
Details: human recombinant HDAC1, 10 μM substrate, 30° C. 60 minutes
Description: In order to examine the HDAC6 selectivity of the compounds of formula I of the present invention by HDAC1 and HDAC6 enzymatic activity inhibition assays, an experiment was performed using a conventional substance as a control. HDAC enzyme activity was measured using a HDAC Fluorimetric Drug Discovery Kit (BML-AK511, 516, Enzo Life Science). […] Based on the resulting values, each IC50 value was calculated using GraphPad Prism4.0 program.
pIC50: −log10 of the molar value.
measured parameter: pIC50

Sample records with pIC50:
FC(F)(F)c1nnc(-c2cnc(NC3(c4ccc(Cl)c(Cl)c4)CCC3)nc2)o1; < 5.00
Fc1cc(F)cc(C2(Nc3ncc(-c4nnc(C(F)F)o4)cn3)CCC2)c1; < 5.00
FC(F)c1nnc(-c2cnc(NC3(c4ccc(OC(F)(F)F)cc4)CCC3)nc2)o1; < 5.00
Fc1ccc(Cl)c(C2(Nc3ncc(-c4nnc(C(F)F)o4)cn3)CCC2)c1; < 5.00
FC(F)c1nnc(-c2cnc(NC3(c4ccccc4OC(F)(F)F)CCC3)nc2)o1; < 5.00
FC(F)c1nnc(-c2cnc(NC3(c4cccc(Cl)c4)CC3)nc2)o1; < 5.00
Fc1cccc(C2(Nc3ncc(-c4nnc(C(F)(F)F)o4)cn3)CCC2)c1; < 5.00
Fc1cccc(C2(Nc3ncc(-c4nnc(C(F)F)o4)cn3)CCC2)c1; < 5.00
Fc1ccc(C2(Nc3ncc(-c4nnc(C(F)(F)F)o4)cn3)CCC2)cc1Cl; < 5.00
Cc1ccc(C2(Nc3ncc(-c4nnc(C(F)F)o4)cn3)CCC2)cc1; < 5.00

Query :: Enter reported pIC50 observed with human recombinant HDAC1 (Homo sapiens) for Fc1ccccc1C1(Nc2ncc(-c3nnc(C(F)(F)F)o3)cn2)CCC1
Result :: < 5.00

Query :: Enter reported pIC50 observed with human recombinant HDAC1 (Homo sapiens) for COc1cccc(C2(Nc3ncc(-c4nnc(C(F)(F)F)o4)cn3)CCC2)c1
Result :: < 5.00
